Catalogue of cytotoxicity at 10 µM readings, one per entry.
# METHOD NOTES: Toxicity liver stage against HepG2, at 10uM
# Assay type: cell-based
# Parameters: test concentration 10 uM, cell line HepG2-A16-CD81EGFP
# MEASUREMENT CONTEXT: human, HepG2-A16-CD81EGFP cells; read-out: INHIBITION
Express your answer in %, writing the number without its unit.

Answered examples (5):
MOLECULE: CC1CCCCN1C(=O)Cn1cc(I)cn1 (stereo unspecified)
UNIT STRING: %
MEASURED: 0.687

MOLECULE: O=c1c2cnc(N3CCCC3)nc2ccn1-c1cccc(F)c1
UNIT STRING: %
MEASURED: 3.36

MOLECULE: c1cc(COC[C@]23COC[C@H]2CN(Cc2ccsc2)C3)ccn1
UNIT STRING: %
MEASURED: -90.9

MOLECULE: C=C(C)CN1CCC(NC(=O)Nc2ccc(F)c(C(N)=O)c2)CC1
UNIT STRING: %
MEASURED: -6.08

MOLECULE: Cc1ccc(C(=O)N2C[C@H]3CCCC(OCc4cccnc4)[C@H]3C2)cn1 (stereo partly specified)
UNIT STRING: %
MEASURED: 4.93

Query :: Quick one: cytotoxicity at 10 µM of `Cn1cnc2c1CCN(CCCS(=O)(=O)c1ccccc1)C2` ?
Result :: -7.54

* * *

# METHOD NOTES: Toxicity liver stage against HepG2, at 10uM
# Format: cell-based
# Set-up: test concentration 10 uM, cell line HepG2-A16-CD81EGFP
# MEASUREMENT CONTEXT: human, HepG2-A16-CD81EGFP cells; read-out: INHIBITION
ASSAY METRIC: cytotoxicity at 10 µM (%)
Expressed in %, but write only the number.

Look over these answered cases.
COMPOUND: Cn1ccc(CN2CCCC23CCN(Cc2ccccc2F)CC3)n1
cytotoxicity at 10 µM / %: -104

COMPOUND: CNC(=O)c1cc2c(nc1NCC1CC1)CCN(c1ncccn1)CC2
cytotoxicity at 10 µM / %: 0.283

COMPOUND: CC(=O)N(Cc1noc(C)n1)C1CCN(CC(=O)N(C)C2CC2)C1 (configuration not stated)
cytotoxicity at 10 µM / %: -4.69

COMPOUND: Cc1ccc(C)c2c1NC(=O)C2CC(=O)O (configuration not stated)
cytotoxicity at 10 µM / %: 28.4

COMPOUND: Cn1cc(CN2CC[C@@H]3[C@@H]2CCN3C(=O)c2cccc(F)c2)cn1
cytotoxicity at 10 µM / %: -66.4

Query :: Query (compound): CC(NC(=O)c1coc(COc2cccc(F)c2)n1)c1nnc(N)s1 (configuration not stated) ; field requested: cytotoxicity at 10 µM
Result :: -144

Query :: Note, next up: `CCOc1cc2c(cc1CCC(=O)O)CCC2`
Result :: -4.63

Query :: Field entry: `CN(C(=O)c1cccnc1OCC(F)F)c1ccc2c(c1)CCO2`
Result :: 3.47

Query :: // same read-out, input: `COc1ccc(F)c(-c2ncccc2C(=O)N2C[C@@H]3CC[C@H]2C3)c1`
Result :: -6.12

Query :: Same read-out for `Cc1occc1C(=O)N1CCC2(CCN(Cc3cccs3)C2)CC1` ?
Result :: -4.58

Query :: What about Cc1cn2c(n1)CCC(NC(=O)c1nc(C)ncc1Cl)C2 (configuration not stated) ?
Result :: -3.13

Query :: Let us now turn to CCc1nc(N)nc(N2CCCC3(CN(C)C(=O)O3)C2)c1C (configuration not stated)
Result :: -138

Query :: What about `O=C(Cn1nc(-c2ccc(F)cc2)oc1=O)NCc1ccc(F)cc1` ?
Result :: 4.13

Query :: Now this one: COC(=O)N1CCCCC1C(=O)N1CCCN(c2ccnc(C)c2)CC1 (configuration not stated)
Result :: -3.76

Query :: Please give the result for `O=C(COc1ccccc1)N1C[C@@H](O)[C@H](N2CCCC2)C1` too.
Result :: -6.54

Query :: Same read-out for `O=C(CN1CCNCC1)N1CC[C@@H](c2ccc3ccccc3c2)[C@H](O)C1` ?
Result :: -8.9

Query :: Can you check `O=C(Cc1ccccn1)N1CCC2(CC1)CN(c1ncccn1)CCO2` next?
Result :: -74.3

* * *

# METHOD NOTES: Toxicity liver stage against HepG2, at 10uM
# Type: cell-based
# Parameters: test concentration 10 uM, cell line HepG2-A16-CD81EGFP
# MEASUREMENT CONTEXT: human, HepG2-A16-CD81EGFP cells; read-out: INHIBITION
Recorded cytotoxicity at 10 µM by entry
Reply numerically in %, unit not repeated.

Record excerpt, results attached:
COMPOUND: COC(=O)c1cc(CN2CCN(c3ncccc3C)CC2)ccc1O
cytotoxicity at 10 µM [%]: -0.503

COMPOUND: O=C(c1ccoc1)N1CCCn2cnc(COCC3CC3)c2C1
cytotoxicity at 10 µM [%]: 2.47

COMPOUND: COc1cccc(S(=O)(=O)N2CCN(C)[C@@H]3CS(=O)(=O)C[C@@H]32)c1
cytotoxicity at 10 µM [%]: -9.6

COMPOUND: CCc1ccccc1OCCN(C)C(=O)CN1CCCC1
cytotoxicity at 10 µM [%]: -50.4

COMPOUND: CS(=O)(=O)NCc1cnc2n1CCN(Cc1ccoc1)CC2
cytotoxicity at 10 µM [%]: -4.1

# context switch: different compound, same cytotoxicity at 10 µM
Query :: Consider the compound CCCc1noc(CCC(=O)N2CCCC2c2noc(C3CC3)n2)n1 (stereo unspecified) and give its measured cytotoxicity at 10 µM.
Result :: -9.98

* * *

# METHOD NOTES: Toxicity liver stage against HepG2, at 10uM
# Assay type: cell-based
# Set-up: test concentration 10 uM, cell line HepG2-A16-CD81EGFP
# MEASUREMENT CONTEXT: human, HepG2-A16-CD81EGFP cells; read-out: INHIBITION
// reported cytotoxicity at 10 µM for each item listed
Form entry: value (%) — number only.

Take a look at these entries with their results.
COMPOUND: CCOCCN(C)C(=O)Nc1cccc2c1CCN(CC)C2
cytotoxicity at 10 µM [%]: -49.3
--
COMPOUND: CCCN1CCCC2(CCN(Cc3noc(C4CCCC4)n3)C2)C1=O (stereo unspecified)
cytotoxicity at 10 µM [%]: 0.603
--
COMPOUND: COC(CNC(=O)NCc1c(C)cc(C)[nH]c1=O)c1ccccc1 (stereo unspecified)
cytotoxicity at 10 µM [%]: -6.12

Query :: Quick check: cytotoxicity at 10 µM of CC(COc1ccccc1)NS(C)(=O)=O (stereo unspecified) ?
Result :: -4.05

Query :: Please answer likewise for `CCc1c(C)nc(C)nc1N1C[C@@H](CN(C)CCN(C)C)[C@@H](CO)C1`
Result :: -2.07

Query :: Quick one: Cc1ccccc1CC(C)NC(=O)Nc1cnn(CC(N)=O)c1 (stereo unspecified)
Result :: -11.5

* * *

Each record here notes measured cytotoxicity at 10 µM.
# METHOD NOTES: Toxicity liver stage against HepG2, at 10uM
# Assay type: cell-based
# Design: test concentration 10 uM, cell line HepG2-A16-CD81EGFP
# MEASUREMENT CONTEXT: human, HepG2-A16-CD81EGFP cells; read-out: INHIBITION
Record the value in %, omitting the unit from your answer.

Check out these entries, answers already filled in.
COMPOUND: CCCc1ccc2oc(C(=O)N3CCN(CCOC)CC3)c(C)c2c1
cytotoxicity at 10 µM / %: -8.36
//
COMPOUND: CN(CC(F)(F)F)C(=O)CNC(=O)N1CCCC(N(C)C)C1 (stereo unspecified)
cytotoxicity at 10 µM / %: -7.91
//
COMPOUND: O=C(CCNC(=O)c1sccc1-c1ccccc1)NC1CCS(=O)(=O)C1 (stereo unspecified)
cytotoxicity at 10 µM / %: 1.9

Query :: Data request, read-out cytotoxicity at 10 µM, for `CC(C)CN1CC[C@@H]2[C@H](CC1)N(C(=O)c1ccccc1)CCS2(=O)=O`
Result :: -128

Query :: // repeat for `CNC(=O)C(C)(C)N1CCC[C@H]1C(=O)NC1CC1` and report
Result :: 4.82

Query :: Further, for `Cn1c(C2CC2)nc2c1CCN(CCS(=O)(=O)c1ccccc1)C2` ?
Result :: 3.73

Query :: CN1CCC(C)(CN(C)C(=O)c2ccc(CCC(C)(C)O)cc2)C1 (stereo unspecified) , same question.
Result :: -11.2

* * *

# METHOD NOTES: Toxicity liver stage against HepG2, at 10uM
# Format: cell-based
# Parameters: test concentration 10 uM, cell line HepG2-A16-CD81EGFP
# MEASUREMENT CONTEXT: human, HepG2-A16-CD81EGFP cells; read-out: INHIBITION
ASSAY METRIC: cytotoxicity at 10 µM (%)
Numeric answer only, unit % assumed.

// worked examples, cytotoxicity at 10 µM included
COMPOUND: COc1c[nH]c(C(=O)N2CCN(c3ccccc3)CC2)cc1=O
cytotoxicity at 10 µM (%): 0.0868
--
COMPOUND: CCn1cc(S(=O)(=O)Nc2cccnc2-n2cccn2)nc1C
cytotoxicity at 10 µM (%): 3.21
--
COMPOUND: O=C(O)c1cc(-c2ccccc2)ns1
cytotoxicity at 10 µM (%): 1.91
--
COMPOUND: CN(CCc1cccs1)C(=O)Nc1ccc2c(c1)C(=O)N(C)CC2
cytotoxicity at 10 µM (%): -5.44
--
COMPOUND: CC(NCC(F)(F)F)c1ccc(S(C)(=O)=O)c(F)c1 (configuration not stated)
cytotoxicity at 10 µM (%): 1.79

Query :: So what's the measured cytotoxicity at 10 µM for this one? CC(C)Oc1ccc(CNC(=O)C2CCC(=O)N2)cn1 (configuration not stated)
Result :: 10.5
